# reported IC50; entries follow
Target: αIIbβ3 integrin (Homo sapiens, UniProt P05106+P08514)
Construct: from tissue; host or cells: human platelets (Triton X-100 lysate)
Sequence (P08514 32-887 limits assumed): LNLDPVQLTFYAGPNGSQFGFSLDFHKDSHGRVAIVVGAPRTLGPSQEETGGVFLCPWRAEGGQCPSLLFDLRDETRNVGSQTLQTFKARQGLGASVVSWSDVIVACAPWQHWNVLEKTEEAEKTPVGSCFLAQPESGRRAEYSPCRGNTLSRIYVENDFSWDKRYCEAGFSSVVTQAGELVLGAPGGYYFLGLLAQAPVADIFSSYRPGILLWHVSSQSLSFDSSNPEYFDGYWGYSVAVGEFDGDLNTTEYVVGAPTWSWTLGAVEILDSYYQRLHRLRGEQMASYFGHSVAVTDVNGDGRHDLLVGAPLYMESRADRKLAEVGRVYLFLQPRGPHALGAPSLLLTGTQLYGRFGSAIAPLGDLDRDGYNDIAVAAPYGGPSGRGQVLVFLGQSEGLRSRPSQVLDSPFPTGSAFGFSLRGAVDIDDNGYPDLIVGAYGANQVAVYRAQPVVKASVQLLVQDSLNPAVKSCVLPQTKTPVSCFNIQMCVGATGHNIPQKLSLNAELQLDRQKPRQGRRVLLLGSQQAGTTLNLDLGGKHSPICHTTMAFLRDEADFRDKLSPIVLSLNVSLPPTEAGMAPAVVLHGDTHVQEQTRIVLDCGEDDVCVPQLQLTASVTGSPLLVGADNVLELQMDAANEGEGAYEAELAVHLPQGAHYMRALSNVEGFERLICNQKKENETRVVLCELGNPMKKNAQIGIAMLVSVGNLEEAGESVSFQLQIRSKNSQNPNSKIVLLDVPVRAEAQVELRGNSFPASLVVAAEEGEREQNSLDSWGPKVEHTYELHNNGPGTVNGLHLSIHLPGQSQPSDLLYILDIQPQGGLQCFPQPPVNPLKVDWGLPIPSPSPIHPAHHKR
Sequence (P08514 891-1039 partner limits assumed): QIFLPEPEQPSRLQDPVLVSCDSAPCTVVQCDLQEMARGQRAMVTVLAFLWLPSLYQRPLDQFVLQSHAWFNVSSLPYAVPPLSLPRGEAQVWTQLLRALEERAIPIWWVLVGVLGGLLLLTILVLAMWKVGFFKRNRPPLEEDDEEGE
Sequence (P05106 27-788): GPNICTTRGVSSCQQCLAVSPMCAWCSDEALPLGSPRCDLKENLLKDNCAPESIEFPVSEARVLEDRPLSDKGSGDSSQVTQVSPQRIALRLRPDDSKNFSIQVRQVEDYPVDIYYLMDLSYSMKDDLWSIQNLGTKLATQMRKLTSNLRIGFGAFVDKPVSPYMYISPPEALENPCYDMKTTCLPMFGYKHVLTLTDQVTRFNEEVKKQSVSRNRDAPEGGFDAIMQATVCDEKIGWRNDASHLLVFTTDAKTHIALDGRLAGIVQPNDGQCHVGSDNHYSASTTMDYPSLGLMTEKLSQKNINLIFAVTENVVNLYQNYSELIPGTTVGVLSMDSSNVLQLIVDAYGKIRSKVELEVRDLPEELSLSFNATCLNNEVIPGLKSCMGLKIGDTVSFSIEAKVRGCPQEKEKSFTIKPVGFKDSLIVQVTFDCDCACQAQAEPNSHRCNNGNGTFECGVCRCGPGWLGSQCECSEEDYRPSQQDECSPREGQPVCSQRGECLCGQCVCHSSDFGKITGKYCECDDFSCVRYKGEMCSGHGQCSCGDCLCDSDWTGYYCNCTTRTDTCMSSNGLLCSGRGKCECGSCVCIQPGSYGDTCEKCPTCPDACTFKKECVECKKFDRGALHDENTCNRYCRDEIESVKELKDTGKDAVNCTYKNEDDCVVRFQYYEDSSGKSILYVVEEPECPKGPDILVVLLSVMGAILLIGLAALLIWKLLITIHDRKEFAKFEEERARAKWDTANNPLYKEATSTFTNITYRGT
Assay: Assay for the inhibition of αIIbβ3 integrin binding (fibrinogen as ligand, integrin captured from platelet lysate)
Conditions: inhibition of specific binding of biotinylated fibrinogen to αIIbβ3 integrin from human platelet lysate

C=CCOC(=O)N[C@@H](CNC(=O)C1CCN(c2cccc(NC3=NCCCN3)c2)CC1)C(=O)O ... 60 nM
CCCCCCCCCCOC(=O)N[C@@H](CCC(=O)N1CCN(c2cccc(NC3=NCC(C)CN3)c2)CC1)C(=O)O (stereo partly drawn) ... > 1000 nM

Then this compound:
(Q) Can you share its IC50? I mean this compound: CCCCCCCCCCOC(=O)N[C@@H](CCC(=O)N1CCN(c2cccc(NC3=NCC(C)(C)CN3)c2)CC1)C(=O)O
(A) > 1000 nM

----------
Biological target: αIIbβ3 integrin (Homo sapiens, UniProt P05106+P08514)
Construct: from tissue; host or cells: human platelets (Triton X-100 lysate)
Assay: Assay for the inhibition of αIIbβ3 integrin binding (fibrinogen as ligand, integrin captured from platelet lysate)
Conditions: inhibition of specific binding of biotinylated fibrinogen to αIIbβ3 integrin from human platelet lysate
measurement_label: IC50

These recorded examples may help you get a feel for the data.
CN(C[C@H](NC(=O)OCc1ccccc1)C(=O)O)C(=O)C1CCN(c2cccc(NC3=NCCCN3)c2)CC1 ... > 1000 nM
O=C(N[C@@H](CNC(=O)C1CCN(c2cccc(NC3=NCCCCN3)c2)CC1)C(=O)O)OCc1ccccc1 ... 74 nM

(Q) Can you share its IC50? I mean this compound: CCCCCCCCCCOC(=O)N[C@@H](CCC(=O)N1CCN(c2cccc(NC3=NCC(O)CN3)c2)CC1)C(=O)O (stereo partly drawn)
(A) > 1000 nM

----------
Molecular target: αvβ3 integrin (Homo sapiens, UniProt P05106+P06756)
Sequence (P06756 31-889 limits assumed): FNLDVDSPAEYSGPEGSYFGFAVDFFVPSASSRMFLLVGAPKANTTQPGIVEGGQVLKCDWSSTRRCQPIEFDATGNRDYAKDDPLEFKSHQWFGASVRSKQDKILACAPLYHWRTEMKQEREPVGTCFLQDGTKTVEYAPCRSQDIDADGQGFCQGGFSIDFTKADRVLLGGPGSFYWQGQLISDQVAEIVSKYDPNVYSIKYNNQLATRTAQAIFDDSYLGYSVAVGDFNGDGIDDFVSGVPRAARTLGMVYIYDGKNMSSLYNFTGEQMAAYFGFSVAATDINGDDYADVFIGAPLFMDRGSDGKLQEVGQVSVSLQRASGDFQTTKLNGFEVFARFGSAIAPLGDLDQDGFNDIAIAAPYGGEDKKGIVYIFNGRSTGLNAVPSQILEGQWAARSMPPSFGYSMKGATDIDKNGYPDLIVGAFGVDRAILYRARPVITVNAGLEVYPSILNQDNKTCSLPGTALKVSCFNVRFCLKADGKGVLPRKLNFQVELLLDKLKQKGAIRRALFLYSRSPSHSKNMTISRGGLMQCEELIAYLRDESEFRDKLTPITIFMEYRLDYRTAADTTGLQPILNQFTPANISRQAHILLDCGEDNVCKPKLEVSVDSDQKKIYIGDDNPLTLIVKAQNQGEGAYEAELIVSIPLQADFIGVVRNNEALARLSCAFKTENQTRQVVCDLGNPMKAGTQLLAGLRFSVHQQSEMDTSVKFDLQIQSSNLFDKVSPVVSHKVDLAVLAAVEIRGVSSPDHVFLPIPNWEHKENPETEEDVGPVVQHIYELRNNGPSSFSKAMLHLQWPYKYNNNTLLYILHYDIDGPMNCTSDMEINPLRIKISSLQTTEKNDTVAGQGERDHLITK
Sequence (P06756 891-1048 partner limits assumed): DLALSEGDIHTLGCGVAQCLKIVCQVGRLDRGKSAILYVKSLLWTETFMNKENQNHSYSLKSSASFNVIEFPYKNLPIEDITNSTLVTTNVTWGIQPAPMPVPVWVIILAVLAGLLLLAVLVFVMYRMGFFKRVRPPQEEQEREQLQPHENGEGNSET
Sequence (P05106 27-788): as the sequence (P05106 27-788) above
Assay: Assay for the inhibition of αvβ3 integrin binding (vitronectin as ligand)
Parameters: purchased Chemicon International, Inc., USA
Conditions: inhibition of specific binding of biotinylated human vitronectin to immobilized αvβ3 integrin
measurement_label: IC50 (nM)
Form entry: value (nM) — number only.

COc1ccc(NC2=NCCCN2)cc1N1CCC(C(=O)NC[C@H](NC(=O)OCc2ccccc2)C(=O)O)CC1 [Ex. 152] ... 0.055
O=C(N[C@@H](CNC(=O)C1CCN(c2cc(NC3=NCCCN3)ccn2)CC1)C(=O)O)OCc1ccccc1 [Ex. 159] ... 0.06
CC(C)COC(=O)N[C@@H](CNC(=O)C1CCN(c2cccc(NC3=NCC(F)CN3)c2)CC1)C(=O)O (stereo partly shown) [Ex. 19] ... 0.032

(Q) Can you share its IC50? I mean this compound: CC(C)COC(=O)N[C@@H](CNC(=O)C1CCN(c2cccc(NC3=NCCCN3)c2)CC1)C(=O)O [Ex. 92]
(A) 0.066

(Q) Subsequent entry: CCOC(=O)N[C@@H](CCC(=O)N1CCN(c2cccc(NC3=NCCCN3)c2)CC1)C(=O)O [Ex. 136]
(A) 0.59

----------
Target: αvβ3 integrin (Homo sapiens, UniProt P05106+P06756)
Experiment: Assay for the inhibition of αvβ3 integrin binding (vitronectin as ligand)
Parameters: purchased Chemicon International, Inc., USA
Conditions: inhibition of specific binding of biotinylated human vitronectin to immobilized αvβ3 integrin
// boundary case: IC50 equal to 2 nM maps to 0; strictly smaller maps to 1

Worked examples, 3 compounds total:
CCCCCCOC(=O)N[C@@H](CCC(=O)N1CCN(c2cccc(NC3=NCCCN3)c2)CC1)C(=O)O ... 1
O=C(N[C@@H](CNC(=O)C1CCN(c2cccc(NC3=NCCCN3)c2)CC1)C(=O)O)OCc1ccccc1 ... 1
O=C(NCc1ccccc1)Nc1cccc(N2CCC(C(=O)NC[C@H](NC(=O)OCc3ccccc3)C(=O)O)CC2)c1 ... 0

(Q) Strictly below 2 nM in IC50? CC(C)OC(=O)N[C@@H](CNC(=O)C1CCN(c2cccc(NC3=NCCCN3)c2)CC1)C(=O)O
(A) 1

(Q) Subsequent entry: O=C(N[C@@H](CCC(=O)N1CCN(c2cccc(NC3=NCC(F)CN3)c2)CC1)C(=O)O)OCc1ccccc1 (stereo partly drawn)
(A) 1

(Q) Subsequent entry: O=C(N[C@@H](CNC(=O)C1CCC(c2cccc(NC3=NCCCN3)c2)CC1)C(=O)O)OCc1ccccc1 (single isomer, unassigned) [Ex. 151B]
(A) 1

----------
Target: αvβ3 integrin (Homo sapiens, UniProt P05106+P06756)
Assay: Assay for the inhibition of αvβ3 integrin binding (vitronectin as ligand)
Design: purchased Chemicon International, Inc., USA
Conditions: inhibition of specific binding of biotinylated human vitronectin to immobilized αvβ3 integrin
# reported IC50; entries follow
Form entry: value (nM) — number only.

These recorded examples may help you get a feel for the data.
CCCCCCNC(=O)N[C@@H](CNC(=O)C1CCN(c2cccc(NC3=NCCCN3)c2)CC1)C(=O)O [Ex. 117] ... 0.35
CCCCCCCCCCOC(=O)N[C@@H](CNC(=O)C1CCN(c2cccc(NC3=NCCCN3)c2)CC1)C(=O)O [Ex. 90] ... 0.23
CC(C)COC(=O)N[C@@H](CCC(=O)N1CCN(c2cccc(NC3=NCC(O)CN3)c2)CC1)C(=O)O (some centres unmarked) [Ex. 128] ... 0.3
O=C(N[C@@H](CCC(=O)N1CCN(c2cccc(NC3=NCCCCN3)c2)CC1)C(=O)O)OCc1ccccc1 [Ex. 123] ... 0.056

(Q) Can you share its IC50? I mean this molecule: CC(C)COC(=O)N[C@@H](CCC(=O)N1CCN(c2cccc(NC3=NCC(F)CN3)c2)CC1)C(=O)O (some centres unmarked) [Ex. 127]
(A) 0.055
